measuredTarget: Human dihydroorotate dehydrogenase (DHODH) (Homo sapiens, UniProt Q02127)
Sequence (Q02127 whole entry): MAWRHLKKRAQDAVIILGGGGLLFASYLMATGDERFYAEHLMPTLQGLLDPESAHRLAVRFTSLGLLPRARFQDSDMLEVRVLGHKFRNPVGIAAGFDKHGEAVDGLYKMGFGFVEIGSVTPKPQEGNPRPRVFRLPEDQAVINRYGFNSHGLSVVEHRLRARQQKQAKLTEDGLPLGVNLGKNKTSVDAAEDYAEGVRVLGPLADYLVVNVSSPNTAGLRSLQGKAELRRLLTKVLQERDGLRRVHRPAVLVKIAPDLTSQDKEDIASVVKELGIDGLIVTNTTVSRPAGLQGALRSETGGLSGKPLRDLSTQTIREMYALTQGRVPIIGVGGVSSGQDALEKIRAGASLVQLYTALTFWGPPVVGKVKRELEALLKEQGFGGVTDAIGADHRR
Ranges used to classify IC50: bottom end: < 0.3 µM; midrange: ≥ 0.3 µM and < 0.9 µM; top end: ≥ 0.9 µM

Example entries and their recorded answers appear below.
>  <compound>
C/C(=C\c1ccc2ccccc2c1Cl)C(=O)Nc1ccccc1C(=O)O [Compound 29]

>  <labelValue>
bottom end

$$$$
>  <compound>
C/C(=C\c1ccc2ccccc2c1)C(=O)Nc1sccc1C(=O)O [Compound 49]

>  <labelValue>
top end

$$$$
>  <compound>
C/C(=C\c1cccc(Oc2ccccc2)c1)C(=O)Nc1ccccc1C(=O)O [Compound 35]

>  <labelValue>
midrange

$$$$
>  <compound>
COC(=O)c1ccccc1NC(=O)/C(C)=C/c1ccc2ccccc2c1 [Compound 52]

>  <labelValue>
top end

$$$$
>  <compound>
O=C(Nc1ccccc1C(=O)O)/C(Cl)=C/c1ccc2ccccc2c1 [Compound 39]

>  <labelValue>
bottom end

$$$$

Query :: Category lookup for the compound C/C(=C\c1ccc2ccccc2c1)C(=O)Nc1ccncc1C(=O)O [Compound 50]
Result :: top end

Query :: Category lookup for the compound C/C(=C\c1ccc2ccccc2c1F)C(=O)Nc1ccccc1C(=O)O [Compound 28]
Result :: bottom end

Query :: Category lookup for the compound C/C(=C\c1cc2ccccc2n1C)C(=O)Nc1ccccc1C(=O)O [Compound 32]
Result :: midrange

Values compiled from paper PMC7558257.
